tested on: HSkMC (human skeletal muscle cells); assay: cytotoxicity call (relative viability < 0.9); settings: 10 µM
Out of some 39,000 compounds screened, about 1,500 (3.8%) were called active. The entries come from a sample that favours actives as a whole.
Your response should consist of one outcome taken from active, inactive

Solved cases (4 shown):
[[record]]
compound = "O=c1[nH]c2ccccc2n1C1CCN(CCCC(c2ccc(F)cc2)c2ccc(F)cc2)CC1"
target_desc = "HSkMC"
group_label = "active"

[[record]]
compound = "CC(C)(C)NCC(O)c1ccccc1Cl.Cl (stereo unspecified)"
target_desc = "HSkMC"
group_label = "inactive"

[[record]]
compound = "COC(N)=O"
target_desc = "HSkMC"
group_label = "inactive"

[[record]]
compound = "CCNS(=O)(=O)C(F)(F)C(F)(F)C(F)(F)C(F)(F)C(F)(F)C(F)(F)C(F)(F)C(F)(F)F"
target_desc = "HSkMC"
group_label = "inactive"


Assay result, entry "CC(=O)NCCSS(C)(=O)=O.CN(C)c1ccc2c(-c3ccccc3C(=O)O)c3ccc(N(C)C)cc3[o+]c2c1" — outcome?
inactive

Next up: "N#CN1CCCC1"
inactive

Next up: "O=C(O)CNCP(=O)(O)O"
inactive

Next up: "NC(=O)c1cn([C@@H]2O[C@H](CO)[C@@H](O)[C@H]2O)c2ncnc(N)c12"
inactive
